Provide the reported pest or weed control at 50 µg/cm2 of each item.
Test system: Cabbage Looper (Trichoplusia ni, TRIPNI)
Test: Bioassay on Cabbage Looper (CL), 128-well diet tray assay
Assay type: in vivo
Conditions: Trichoplusia ni; Cabbage Looper, 128-well diet tray assay; read-out: CL rating
Procedure: Certain molecules disclosed in this document were tested against BAW and CL using procedures described in the following examples. In the reporting of the results, the “BAW & CL Rating Table” was used (See Table Section). […]

{"compound": "O=C(Nc1cc(Cl)cc(Cl)c1)c1cc(NC(=O)[C@H]2[C@H](c3cc(Cl)cc(Cl)c3)C2(Cl)Cl)ccc1Cl (relative stereo)", "assay-value": "50 to 100%"}

Parameter requested: pest or weed control at 50 µg/cm2. Apply to each item below.
1. O=C(Nc1ccc(F)cc1F)c1cc(NC(=O)[C@H]2[C@H](c3ccc(F)c(C(F)F)c3)C2(Cl)Cl)ccc1Cl (relative stereo)
2. O=C(Nc1ccc(F)cc1F)c1cc(NC(=O)[C@H]2[C@H](c3ccc(Cl)c(C(F)F)c3)C2(Cl)Cl)ccc1Cl (relative stereo)

Reply:
50 to 100%
50 to 100%
